- Tested on: A375 (malignant melanoma) cell line
- method.summary: CellTiter-Glo luminescent cell viability assay, A375
- Assay type: cell-based, human
- applied.conditions: Homo sapiens, A-375; A375, compound at 10 μM, 72 h
quantity.name: viability at 10 µM (%)

{"columns": ["molecule", "number"],
 "data": [
  ["N#Cc1c(NCc2ccc(Cl)cc2)nc2ccccc2c1N1CCC(Oc2cccc(F)c2)CC1 [Compound 3228CN]", 91.7],
  ["Cc1ccc(OC2CCCN(c3c(C#N)c(NCc4ccc(Cl)cc4)nc4ccccc34)C2)cc1 (stereo not shown) [Compound 3234CN]", 102],
  ["CC(C)(C)OC(=O)NC1CCN(c2c(C#N)c(NCc3ccc(Cl)cc3)nc3ccccc23)CC1 [Compound 182CN]", 90.2],
  ["Cc1cc(CNc2nc3ccccc3c(N3CCC(NC(C)(C)C)CC3)c2C#N)ccc1Nc1nccc(-c2cccnc2)n1 [Compound 498CN]", 0.1],
  ["N#Cc1c(NCc2ccc(Cl)cc2)nc2ccccc2c1N1CCC(Oc2ccc(Cl)cc2)CC1 [Compound 3226CN]", 94.1],
  ["COc1ccc(Nc2nc3ccccc3c(N3CCC(NC(C)(C)C)CC3)c2C#N)cc1 [Compound 3252CN]", 0.2],
  ["CC(C)NC1CCN(c2c(C#N)c(NCc3ccc(Cl)cc3)nc3ccccc23)CC1 [Compound 3174CN]", 0.2]
]}

----------
Measured viability at 10 µM, listed per entry for reference.
- System: PANC-1 (prancreatic carcinoma) cell line
- method.summary: CellTiter-Glo luminescent cell viability assay, PANC-1
- Type: cell-based
- applied.conditions: Homo sapiens; PANC-1, 10 μM, 72 h, % of signal of diluent-treated cultures

{"columns": ["compound", "assay.system", "viability at 10 µM (%)"],
 "data": [
  ["CCN(CC)C1CCN(c2c(C#N)c(NCc3ccc(Cl)cc3)nc3ccccc23)C1 (stereo not shown) [Compound 126CN]", "PANC-1 (prancreatic carcinoma) cell line", 103],
  ["CN1CCN(C2CCN(c3c(C#N)c(NCc4ccc(Cl)cc4)nc4ccccc34)C2)CC1 (stereo not shown) [Compound 3200CN]", "PANC-1 (prancreatic carcinoma) cell line", 38.4],
  ["CNC1CCN(c2c(C#N)c(NCc3ccc(Cl)cc3)nc3ccccc23)C1 (stereo not shown) [Compound 3192CN]", "PANC-1 (prancreatic carcinoma) cell line", 1.5],
  ["N#Cc1c(NCc2ccc(Cl)cc2)nc2ccccc2c1N1CCC(NC2CCCC2)CC1 [Compound 3178CN]", "PANC-1 (prancreatic carcinoma) cell line", 0.8]
]}

----------
Parameter viability at 10 µM: see the listing below.
- Tested on: Huh7 (hepatocellular carcinoma) cell line
- method.summary: CellTiter-Glo luminescent cell viability assay, Huh7
- Assay type: cell-based, human
- applied.conditions: Homo sapiens, Huh-7; Huh7, compound at 10 μM, 72 h
quantity.name: viability at 10 µM (%)

{"columns": ["compound", "number"],
 "data": [
  ["CNC1CCN(c2c(C#N)c(NCc3ccc(Cl)cc3)nc3ccccc23)C1 (stereo not shown) [Compound 3192CN]", 0.4],
  ["CC(C)(C)NC1CCN(c2c(F)c(Nc3cccc(Nc4nccc(C(F)(F)F)n4)c3)nc3ccccc23)CC1 [Compound 540F]", 59.4],
  ["CC(C)(C)NC1CCN(c2c(C#N)c(Nc3ccncn3)nc3ccccc23)CC1 [Compound 3282CN]", 75.4],
  ["Cc1cc(OC2CCN(c3c(C#N)c(NCc4ccc(Cl)cc4)nc4ccccc34)CC2)no1 [Compound 2978CN]", 74.2],
  ["Cc1cc(Nc2nc3ccccc3c(N3CCC(NC(C)(C)C)CC3)c2C#N)ccc1Nc1ccnc(-c2cccnc2)n1 [Compound 522CN]", 0.4],
  ["CCN(CC)C1CCN(c2c(C#N)c(NCc3ccc(Cl)cc3)nc3ccccc23)CC1 [Compound 184CN]", 0.7],
  ["CC(C)(C)NC1CCN(c2c(C#N)c(Nc3ccc(OC(F)(F)F)cc3)nc3ccccc23)CC1 [Compound 3266CN]", 49.1],
  ["N#Cc1c(NCc2ccc(Cl)cc2)nc2ccccc2c1N1CCCC(Oc2ccccc2)C1 (stereo not shown) [Compound 3206CN]", 95.1],
  ["N#Cc1c(NCc2ccc(Cl)cc2)nc2ccccc2c1N1CCC(Oc2ccccc2)C1 (stereo not shown) [Compound 3330CN]", 33.7],
  ["Cc1cc(Nc2nc3ccccc3c(N3CCC(NC(C)(C)C)CC3)c2C#N)ccc1Nc1nccc(-c2cccnc2)n1 [Compound 3131CN]", 69.8],
  ["CC(C)(C)NC1CCN(c2c(C#N)c(Nc3cccc(F)c3)nc3ccccc23)CC1 [Compound 3262CN]", 0.7],
  ["N#Cc1c(NCc2ccc(Cl)cc2)nc2ccccc2c1N1CCC(Oc2cccc(F)c2)C1 (stereo not shown) [Compound 3340CN]", 39.9],
  ["N#Cc1c(NCc2ccc(Cl)cc2)nc2ccccc2c1N1CCC(N2CCCC2)CC1 [Compound 200CN]", 0.7],
  ["N#Cc1c(NCc2ccc(Cl)cc2)nc2ccccc2c1N1CCC(Oc2cccc(F)c2)CC1 [Compound 3228CN]", 108],
  ["Cc1ccc(OC2CCN(c3c(C#N)c(NCc4ccc(Cl)cc4)nc4ccccc34)C2)cc1 (stereo not shown) [Compound 3332CN]", 58.3],
  ["CN(C)C1CCN(c2c(C#N)c(NCc3ccc(Cl)cc3)nc3ccccc23)C1 (stereo not shown) [Compound 3202CN]", 61.5]
]}

----------
- Test system: 786-O (renal adenocarcinoma) cell line
- method.summary: CellTiter-Glo luminescent cell viability assay, 786-O
- Type: cell-based, human
- applied.conditions: Homo sapiens, 786-0; 786-O cell line; 72 h incubation; CellTiter-Glo; read-out: EC50, growth inhibition of 786-O
- Description: All cell lines were maintained in medium containing 1% penicillin-streptomycin (Dutscher, P06-07100) and 10% Fetal Bovine Serum (Hyclone Dutscher, RZK35922) cultured at 37° C. with 5% CO2. […] Cell viability was measured using the CellTiter-Glo® luminescent cell viability assay as described by the manufacturer (Promega, Ref G7571) using an Infinite F200Pro luminometer (Tecan). […]
pEC50: −log10 of the molar value. Where a name gives a salt, the structure may show the parent alone.
Listing of entries alongside the reported pEC50.
quantity.name: pEC50

{"columns": ["molecule", "result"],
 "data": [
  ["N#Cc1c(NCc2ccc(Cl)cc2)nc2ccccc2c1N1CCC(NC2CCCC2)CC1 [Compound 3178CN]", "5.30 to 6.30"],
  ["Clc1ccc(CNc2cc(N3CC(N4CCOCC4)C3)c3ccccc3n2)cc1 [Compound 118, hydrochloride]", "5.30 to 6.30"],
  ["CC(C)(C)NC1CCN(c2c(F)c(NCc3ccc(F)cc3)nc3ccccc23)CC1 [Compound 240F]", "5.00 to 5.30"],
  ["OC1CCN(c2cc(NCc3ccc(Cl)cc3)nc3ccccc23)CC1 [Compound 2916, hydrochloride]", "5.00 to 5.30"]
]}

----------
- Tested on: A375 (malignant melanoma) cell line
- method.summary: CellTiter-Glo luminescent cell viability assay, A375
- Format: cell-based, human
- applied.conditions: Homo sapiens, A-375; A375, compound at 10 μM, 72 h

{"columns": ["compound", "viability at 10 µM / %"],
 "data": [
  ["CCN(CC)C1CCN(c2c(C#N)c(NCc3ccc(Cl)cc3)nc3ccccc23)C1 (stereo not shown) [Compound 126CN]", 89.9],
  ["CC(C)(C)OC(=O)NC1CCCN(c2c(C#N)c(NCc3ccc(Cl)cc3)nc3ccccc23)C1 (stereo not shown) [Compound 154CN]", 88.5],
  ["COc1ccc(OC2CCN(c3c(C#N)c(NCc4ccc(Cl)cc4)nc4ccccc34)CC2)cc1 [Compound 3224CN]", 91.7],
  ["N#Cc1c(NCc2ccc(Cl)cc2)nc2ccccc2c1N1CCCC(N2CCOCC2)C1 (stereo not shown) [Compound 178CN]", 90.2],
  ["COc1cc(C)nc(Nc2ccc(Nc3nc4ccccc4c(N4CCC(NC(C)(C)C)CC4)c3C#N)cc2C)n1 [Compound 510CN]", 0.1],
  ["N#Cc1c(NCc2ccc(Cl)cc2)nc2ccccc2c1N1CCC(Oc2ccc(F)cc2)CC1 [Compound 2942CN]", 94.9],
  ["CN(C)C1CCN(c2c(C#N)c(NCc3ccc(Cl)cc3)nc3ccccc23)C1 (stereo not shown) [Compound 3202CN]", 70.5],
  ["Cc1cc(C)nc(Nc2ccc(Nc3nc4ccccc4c(N4CCC(NC(C)(C)C)CC4)c3C#N)cc2)n1 [Compound 3276CN]", 1],
  ["N#Cc1c(NCc2ccc(Cl)cc2)nc2ccccc2c1N1CCCC(Oc2cccc(F)c2)C1 (stereo not shown) [Compound 3240CN]", 94.9],
  ["Cc1cc(Nc2nc3ccccc3c(N3CCC(NC(C)(C)C)CC3)c2C#N)ccc1Nc1ccnc(-c2cccnc2)n1 [Compound 522CN]", 0.3],
  ["N#Cc1c(NCc2ccc(Cl)cc2)nc2ccccc2c1N1CCC(Oc2ccc(Cl)cc2)C1 (stereo not shown) [Compound 3336CN]", 107],
  ["CC(C)(C)NC1CCN(c2c(C#N)c(Nc3ccc(F)cc3)nc3ccccc23)CC1 [Compound 3260CN]", 0.4],
  ["N#Cc1c(NCc2ccc(Cl)cc2)nc2ccccc2c1N1CCC(Oc2cccc(F)c2)C1 (stereo not shown) [Compound 3340CN]", 90.8],
  ["N#Cc1c(NCc2ccc(Cl)cc2)nc2ccccc2c1N1CCCC(N)C1 (stereo not shown) [Compound 3156CN]", 0.4],
  ["N#Cc1c(NCc2ccc(Cl)cc2)nc2ccccc2c1N1CCC(Oc2ccc(F)cc2)C1 (stereo not shown) [Compound 3338CN]", 93.4],
  ["Cc1cc2c(C)nc(Nc3ccc(Nc4nc5ccccc5c(N5CCC(NC(C)(C)C)CC5)c4C#N)cc3C)nc2o1 [Compound 512CN]", 0.2]
]}
